These measurements were taken from ChEMBL document CHEMBL1201862.

Quick list: GI50 per entry.
tested on: TK-10; test: NCI tumour cell line growth inhibition, 48 h
Active and inactive are the calls of the source. Rule as the data show it: active = GI50 up to about 1.1 µM and inactive = higher.
measured-endpoint: GI50

{"molecule": "CCOc1cc(NC(C)=O)ccc1C(=O)NN1C(=O)CSC1c1ccc(O)c(OC)c1 (stereo not given)", "measured-endpoint": "GI50", "assay-result": "6.67 µM (inactive)"}
{"molecule": "Clc1ccccc1-c1nn2c(CCCCCCCCc3nnc4sc(-c5ccccc5Cl)nn34)nnc2s1", "measured-endpoint": "GI50", "assay-result": "> 100 µM (inactive)"}
{"molecule": "CC1CC[C@@]2(OC1)OC1C[C@H]3[C@@H]4CC[C@H]5CC(OC6OC(CO)C(O)C(OC7OC(CO)C(OC8OC(CO)C(O)C(OC9OC(CO)C(O)C(O)C9O)C8OC8OC(CO)C(O)C(O)C8O)C(O)C7O)C6O)[C@H](O)CC5(C)[C@H]4CCC3(C)C1[C@@H]2C (stereo not given in full)", "measured-endpoint": "GI50", "assay-result": "5.57 µM (inactive)"}
{"molecule": "COc1cc2c(cc1OC)C1Cc3cc(OC)c(OC)cc3N1CC2 (stereo not given)", "measured-endpoint": "GI50", "assay-result": "23 µM (inactive)"}
{"molecule": "O=Cc1ccccc1CCn1c(=O)c2cc3c(=O)n(CCc4ccccc4C=O)c(=O)c3cc2c1=O", "measured-endpoint": "GI50", "assay-result": "> 100 µM (inactive)"}
{"molecule": "O=C1C(Cl)C2(CC(/C=C/c3ccccc3Cl)=NN2c2cccc(S(=O)(=O)O)c2)N1c1nc2ccccc2s1 (stereo not given)", "measured-endpoint": "GI50", "assay-result": "24.2 µM (inactive)"}
{"molecule": "O=C(CC1(O)C(=O)Nc2ccccc21)c1ccccc1Cl (stereo not given)", "measured-endpoint": "GI50", "assay-result": "> 100 µM (inactive)"}
{"molecule": "CN(C)C1C(CO)OC(n2cnc3c(N)ncnc32)C1O (stereo not given)", "measured-endpoint": "GI50", "assay-result": "> 100 µM (inactive)"}
{"molecule": "COC(=O)[C@@H]1C(=O)O[C@@H](c2cc(OC)c(OC)cc2OC)[C@@H]1C(=O)OC.COC(=O)[C@H]1C(=O)O[C@@H](c2cc(OC)c(OC)cc2OC)[C@@H]1C(=O)OC", "measured-endpoint": "GI50", "assay-result": "> 100 µM (inactive)"}
{"molecule": "COC(=O)C(Cc1ccc2c(c1)OCO2)(NC(=O)c1ccccc1)P(=O)(OC)OC (stereo not given)", "measured-endpoint": "GI50", "assay-result": "> 100 µM (inactive)"}
{"molecule": "Cc1ccc(O)c(C(c2ccc(C(c3cc(C)ccc3O)c3cc(C)ccc3O)cc2)c2cc(C)ccc2O)c1", "measured-endpoint": "GI50", "assay-result": "1.56 µM (inactive)"}
{"molecule": "O=c1cc(-c2ccc(O)cc2)oc2cc(O[C@@H]3O[C@H](CO)[C@@H](O)[C@H](O)[C@H]3O)cc(O)c12", "measured-endpoint": "GI50", "assay-result": "> 100 µM (inactive)"}
{"molecule": "NC(=S)C1=C(N)Oc2c(c(=O)oc3ccccc23)C1c1ccc(Br)cc1 (stereo not given)", "measured-endpoint": "GI50", "assay-result": "> 100 µM (inactive)"}
{"molecule": "O=C(CSc1nnc(Cc2ccccc2)o1)Nc1ccc(Cl)cc1Cl", "measured-endpoint": "GI50", "assay-result": "> 100 µM (inactive)"}
{"molecule": "CCc1nc(N)nc(N)c1-c1ccc(NCCc2ccccc2)c([N+](=O)[O-])c1", "measured-endpoint": "GI50", "assay-result": "13.3 µM (inactive)"}
{"molecule": "CC(C)=CCC[C@@H](C)c1c2nc3ccccc3[nH]c-2c(C)c(=O)c1O", "measured-endpoint": "GI50", "assay-result": "2.58 µM (inactive)"}
{"molecule": "CC(=O)c1c(-c2ccccc2)c(-c2ccc(OCCN(C)C)cc2)n2ccccc12", "measured-endpoint": "GI50", "assay-result": "17 µM (inactive)"}
{"molecule": "CC1=NN(c2nc(N)nc(CO)n2)C(C)(C)C1", "measured-endpoint": "GI50", "assay-result": "> 100 µM (inactive)"}
{"molecule": "CC(=O)O[C@H]1C(=O)[C@@]2(C)[C@H]([C@H](OC(=O)c3ccccc3)[C@@]3(O)C[C@H](O)C(C)=C1C3(C)C)[C@]1(OC(C)=O)CO[C@@H]1C[C@@H]2O", "measured-endpoint": "GI50", "assay-result": "83.2 µM (inactive)"}
{"molecule": "CCCC(=O)Nc1cc(/C=C/C(=O)N2C[C@@H]3C[C@]34C2=CC(=O)c2[nH]cc(C)c24)n(C)c1", "measured-endpoint": "GI50", "assay-result": "0.495 µM (active)"}
